Test: in vitro
Conditions: African green monkey
readout_label: IC50 (nM)
A number alone suffices; assume nM.

Lab book: IC50 of C[C@@H]1C[C@@H]([C@H](O)CC2CC(=O)NC(=O)C2)C(=O)[C@@H](C)C1 [cycloheximide] noted as 500
